# assayed target: Human Polymorphonuclear Leukocyte Elastase (Homo sapiens, UniProt P08246)
# Construct: Crude extract of human polymorphonuclear leukocytes (PMN) containing elastase activity; from tissue; host or cells: human polymorphonuclear leukocytes (crude extract)
# Sequence (P08246 30-267): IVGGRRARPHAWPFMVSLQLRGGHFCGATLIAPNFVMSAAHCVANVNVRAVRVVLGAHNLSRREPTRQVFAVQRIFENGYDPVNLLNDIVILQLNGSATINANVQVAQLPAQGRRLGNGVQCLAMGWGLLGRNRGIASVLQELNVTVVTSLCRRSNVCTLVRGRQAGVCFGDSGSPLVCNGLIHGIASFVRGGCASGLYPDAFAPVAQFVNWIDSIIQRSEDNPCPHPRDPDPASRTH
# method description: Enzyme assay for inhibition of human polymorphonuclear leukocyte elastase via hydrolysis of Boc-AAPAN or Boc-AAPVN
# Assay type: biochemical
# study conditions: pH 7.5, second order rate constant for inactivation of the enzyme, expressed to the nearest thousand, read-out: Kobs/[I]
assay metric: kinact/KI (M⁻¹ s⁻¹)
Write the answer as a number in M⁻¹ s⁻¹, unit excluded.

{"molecule": "CCC[C@@H](NC(=O)N1C(=O)C(CC)(CC)[C@@H]1Oc1ccc(C(=O)NCCN2CCS(=O)(=O)CC2)cc1)c1ccc(C)cc1", "assayed target": "Human Polymorphonuclear Leukocyte Elastase (Homo sapiens, UniProt P08246)", "kinact/KI [M⁻¹ s⁻¹]": "1.28e+06"}
{"molecule": "CCC[C@@H](NC(=O)N1C(=O)C(CC)(CC)[C@@H]1Oc1ccc(C(=O)N(C)CCCN(C)CC)cc1)c1ccc(C)cc1", "assayed target": "Human Polymorphonuclear Leukocyte Elastase (Homo sapiens, UniProt P08246)", "kinact/KI [M⁻¹ s⁻¹]": "1.1e+06"}
{"molecule": "CCC[C@@H](NC(=O)N1C(=O)C(CC)(CC)[C@@H]1Oc1ccc(CC(=O)NC(C)C(=O)N(CCO)CCO)cc1)c1ccc(C)cc1 (some centres unmarked)", "assayed target": "Human Polymorphonuclear Leukocyte Elastase (Homo sapiens, UniProt P08246)", "kinact/KI [M⁻¹ s⁻¹]": 939000}

Entry CCC[C@@H](NC(=O)N1C(=O)C(CC)(CC)[C@@H]1Oc1ccc(C(=O)N(C)CCN2CCN(C(=O)OC(C)(C)C)CC2)cc1)c1ccc(C)cc1 , kinact/KI reported as 3.47e+06

Entry CCC[C@@H](NC(=O)N1C(=O)C(CC)(CC)[C@@H]1Oc1ccc(C(=O)N(C)CCN(Cc2ccccc2)Cc2ccccc2)cc1)c1ccc(C)cc1 , kinact/KI reported as 1.02e+06

###

# assayed target: Human Polymorphonuclear Leukocyte Elastase (Homo sapiens, UniProt P08246)
# Construct: Crude extract of human polymorphonuclear leukocytes (PMN) containing elastase activity; from tissue; host or cells: human polymorphonuclear leukocytes (crude extract)
# method description: Enzyme assay for inhibition of human polymorphonuclear leukocyte elastase via hydrolysis of Boc-AAPAN or Boc-AAPVN
# Type: biochemical
# study conditions: pH 7.5, second order rate constant for inactivation of the enzyme, expressed to the nearest thousand, read-out: Kobs/[I]
assay metric: kinact/KI
Answer format: number, then unit.

{"molecule": "CCC[C@@H](NC(=O)N1C(=O)C(CC)(CC)[C@@H]1Oc1ccc(C(=O)N2CCN(C(C)C)CC2)cc1)c1ccc(C)cc1 [Compound 248]", "result": "2.39e+06 M⁻¹ s⁻¹"}
{"molecule": "CCC[C@@H](NC(=O)N1C(=O)C(CC)(CC)[C@@H]1Oc1ccc(C(=O)NC2CN(CC)N(CC)C2)cc1)c1ccc(C)cc1 [Compound 118]", "result": "1e+06 M⁻¹ s⁻¹"}
{"molecule": "CCC[C@@H](NC(=O)N1C(=O)C(CC)(CC)[C@@H]1Oc1ccc(CC(=O)N(C)CCCC(=O)O)cc1)c1ccc(C)cc1 [Compound 64]", "result": "917000 M⁻¹ s⁻¹"}
{"molecule": "CCC[C@@H](NC(=O)N1C(=O)C(CC)(CC)[C@@H]1Oc1ccc(CC(=O)N2CCOCC2)cc1)c1ccc2c(c1)OCO2 [Compound 258]", "result": "1.78e+06 M⁻¹ s⁻¹"}
{"molecule": "CCC[C@@H](NC(=O)N1C(=O)C(CC)(CC)[C@@H]1Oc1ccc(C(=O)NCCn2cnnn2)cc1)c1ccc(C)cc1 [Compound 101]", "result": "2.05e+06 M⁻¹ s⁻¹"}
{"molecule": "CCC[C@@H](NC(=O)N1C(=O)C(CC)(CC)[C@@H]1Oc1ccc(C(=O)N(C)CCN(C)Cc2cc(OC)cc(OC)c2)cc1)c1ccc(C)cc1 [Compound 206]", "result": "1.74e+06 M⁻¹ s⁻¹"}

Entry CCC[C@@H](NC(=O)N1C(=O)C(CC)(CC)[C@@H]1Oc1ccc(CC(=O)N(C)CCN(C)C)cc1)c1ccc(C(=O)N2CCOCC2)cc1 [Compound 275] , kinact/KI reported as 290000 M⁻¹ s⁻¹

Entry CCC[C@@H](NC(=O)N1C(=O)C(CC)(CC)[C@@H]1Oc1ccc(C(=O)OCCCCCCN(C)C)cc1)c1ccc(C)cc1 [Compound 24] , kinact/KI reported as 1.99e+06 M⁻¹ s⁻¹

Entry CCC[C@@H](NC(=O)N1C(=O)C(CC)(CC)[C@@H]1Oc1ccc(C(=O)N(C)CCN(C)Cc2ccccc2)cc1)c1ccc(C)cc1 [Compound 125] , kinact/KI reported as 2.05e+06 M⁻¹ s⁻¹

Source: patent EP0595557A1
